# Tested on: CP260
# method: qHTS profiling for inhibitors of Plasmodium falciparum proliferation (AID 504749); further: nearly all actives have a fitted effect of over 60% in size
# assay setup: P. falciparum in erythrocytes, SYBR Green DNA, 72 h; series mostly up to 28.7 µM
Records with an inconclusive call do not appear. The source made the active and inactive calls. The call rests on the fitted dose curve; in most records, active means well fitted inhibition curve with a large enough effect; inconclusive means small, poorly fitted or top-dose-only effect; inactive means flat fitted curve, though single readings scatter.
Lab note: assign the record to one of TRUE (active), FALSE (inactive)

Example cases with answers are listed next.
Please let me know the test result on file for COC(=O)C1=C(C)NC(C)=C(C(=O)OCCN2CCN(C(c3ccccc3)c3ccccc3)CC2)C1c1cccc([N+](=O)[O-])c1 (stereo not drawn) .
TRUE

Please let me know the test result on file for `CCC1=C[C@@H]2CN(C1)Cc1c([nH]c3ccccc13)[C@@](C(=O)OC)(c1cc3c(cc1OC)N(C)[C@@H]1[C@@](O)(C(=O)OC)[C@H](OC(C)=O)[C@]4(CC)C=CCN5CC[C@]31[C@@H]54)C2` .
TRUE

Please let me know the test result on file for `CC[C@H]1CN2CCc3cc(OC)c(OC)cc3[C@H]2C[C@@H]1C[C@@H]1NCCc2cc(OC)c(OC)cc21` .
TRUE

Please let me know the test result on file for `CC1(C)O[C@@H]2C[C@@H]3[C@H]4C[C@@H](F)C5=CC(=O)C=C[C@]5(C)[C@@]4(F)[C@@H](O)C[C@]3(C)[C@]2(C(=O)CO)O1` .
FALSE

Please let me know the test result on file for `O=C(O)CO.[NH2-].[NH2-].[Pt+2]` .
FALSE

Please let me know the test result on file for `Nc1ccn([C@@H]2O[C@H](CO)[C@H](O)C2(F)F)c(=O)n1` .
TRUE

Please let me know the test result on file for `C[C@H]1C[C@@H]2[C@@H]([C@@H](O)C[C@@]3(C)[C@H]2CC[C@]3(O)C(=O)CO)[C@@]2(C)C=CC(=O)C=C12` .
FALSE

More entries:
Please let me know the test result on file for `COC(=O)C[C@](O)(CCCC(C)(C)O)C(=O)O[C@@H]1C(OC)=C[C@]23CCCN2CCc2cc4c(cc2[C@H]13)OCO4` .
TRUE

---

# method: Quantitative High-Throughput drug screen in 47 multiple myeloma cell lines against the NCATS MIPE library collection: JIM1_ECACC cell viability assay (AID 1918964; further: potency means the concentration at half of the fitted maximal effect)
# assay setup: JIM1 myeloma viability, CellTiter-Glo ATP luminescence, 48 h; series mostly up to 45.8 µM
Results filed as inconclusive are left out. Calls of active or inactive are those of the source. Calls come from the whole dose curve; as a rule, active = well fitted cell-killing curve with a large enough effect; inconclusive = small, poorly fitted or top-dose-only effect, or effect the other way; inactive = no such curve, though single readings can be large or run the other way.
Exercise: for every item that follows, state its recorded Potency.

Supply measured Potency of `Cc1nc(N)ncc1-c1nc(N2CCOCC2)c2sc(C(C)(C)O)cc2n1` in your reply.
0.0418 µM (active)

// input: 4 compounds below; output: Potency for each
1. CCn1cc(-c2ccnc3[nH]c(-c4cccc(CN(C)C)c4)cc23)c(-c2ccc(NC(=O)N(C)C)cc2)n1
2. CC(C)c1ccc(Cn2ccc3c4c(N)nc(NC5CC5)nc4ccc32)cc1
3. COc1cc(OC2CCN(C)CC2)ccc1Nc1ncc2c(n1)n(C1CCCC1)c(=O)n2C
4. CN(c1ncccc1CNc1nc(Nc2ccc3c(c2)CC(=O)N3)ncc1C(F)(F)F)S(C)(=O)=O

["5.26 µM (active)", "1.87 µM (active)", "11.8 µM (active)", "3.32 µM (active)"]

---

# method: Quantitative High-Throughput drug screen in 47 multiple myeloma cell lines against the NCATS MIPE library collection: JIM3_ECACC cell viability assay (AID 1918963; further: potency means the concentration at half of the fitted maximal effect; nearly all actives have a fitted effect of over 35% in size)
# assay setup: JIM3 myeloma viability, CellTiter-Glo ATP, 48 h; series mostly up to 45.8 µM
Records with an inconclusive call do not appear. Active and inactive are the calls of the source. Calls follow the shape of the dose curve; as a rule, active = well fitted cell-killing curve with a large enough effect; inconclusive = small, poorly fitted or top-dose-only effect; inactive = no such curve, though single readings can be large or run the other way.
measurement name: Potency

Supply measured Potency of `CCS(=O)(=O)c1cccc(-c2cc(C(=O)NC3CCN(C)CC3)c(C)c3[nH]c4ncc(C)cc4c23)c1` in your reply.
0.935 µM (active)

Supply measured Potency of `CN1CCN(c2ccc3nc(-c4c(N)c5c(F)cccc5[nH]c4=O)[nH]c3c2)CC1` in your reply.
13.2 µM (active)

Supply measured Potency of `C[C@@H](Oc1cc(-c2cnn(C3CCNCC3)c2)cnc1N)c1c(Cl)ccc(F)c1Cl` in your reply.
8.33 µM (active)

Supply measured Potency of `CNC(=O)c1ccc(N2C(=S)N(c3cnc(C#N)c(C(F)(F)F)c3)C(=O)C23CCC3)cc1F` in your reply.
2.96 µM (active)

--- query ---
Supply measured Potency of `O=C(C=Cc1cccnc1)NCCCCC1CCN(C(=O)c2ccccc2)CC1` in your reply.
0.001 µM (active)

---

# method: qHTS assay to identify small molecule inhibitors of chordoma cells - UCH-1 (AID 1259355); further: nearly all actives have a fitted effect of over 55% in size
# assay setup: UCH-1 chordoma viability, CellTiter-Glo, 48 h, combination, with auranofin plus four topoisomerase inhibitors; series mostly up to 46.1 µM
Inconclusive results are not listed. Calls of active or inactive are those of the source. The call rests on the fitted dose curve; in most records, active means well fitted cell-killing curve with a large enough effect; inconclusive means small, poorly fitted or top-dose-only effect, or effect the other way; inactive means no such curve, though single readings can be large or run the other way.
Lab note: assign the record to one of active, inactive

Example cases with answers are listed next.
Please let me know the test result on file for `COC(=O)C[C@](O)(CCCC(C)(C)O)C(=O)O[C@@H]1C(OC)=C[C@]23CCCN2CCc2cc4c(cc2[C@H]13)OCO4` .
active

Please let me know the test result on file for `Nc1ccc(S(=O)(=O)Nc2ncccn2)cc1` .
inactive

Please let me know the test result on file for `COc1cc(C(=O)NS(=O)(=O)c2ccccc2C)ccc1Cc1cn(C)c2ccc(NC(=O)OC3CCCC3)cc12` .
inactive

Please let me know the test result on file for `CC(C)(C)NC(=O)[C@H]1CN(Cc2cccnc2)CCN1C[C@@H](O)C[C@@H](Cc1ccccc1)C(=O)N[C@H]1c2ccccc2C[C@H]1O` .
inactive

Please let me know the test result on file for O=c1[nH]c(=O)n(C2CCCO2)cc1F (stereo unspecified) .
inactive

Next up:
Please let me know the test result on file for `COc1c(N2C[C@@H]3CCCN[C@H]3C2)c(F)cc2c(=O)c(C(=O)O)cn(C3CC3)c12` .
inactive

---

# method: qHTS of pediatric cancer cell lines to identify multiple opportunities for drug repurposing: Primary screen for control Hh wild type fibroblast cells (AID 1347106); further: nearly all actives have a fitted effect of over 55% in size
# assay setup: Hh wild-type fibroblast viability, CellTiter-Glo luminescence, 48 h; series mostly up to 46 µM
Records with an inconclusive call do not appear. The source made the active and inactive calls. The call rests on the fitted dose curve; in most records, active means well fitted cell-killing curve with a large enough effect; inconclusive means small, poorly fitted or top-dose-only effect; inactive means flat fitted curve, though single readings scatter.
Lab note: assign the record to one of active, inactive

Please let me know the test result on file for `COCCn1c2c([n+](Cc3cnccn3)c1C)C(=O)c1ccccc1C2=O` .
active

Please let me know the test result on file for `CCN1CCN(CC(=O)Nc2ccc(-c3cccc4c(=O)cc(N5CCOCC5)oc34)c3sc4ccccc4c23)CC1` .
inactive

Please let me know the test result on file for `Cc1c(CN2CCN(S(C)(=O)=O)CC2)sc2c(N3CCOCC3)nc(-c3cnc(N)nc3)nc12` .
active

More entries:
Please let me know the test result on file for `COc1ccc2c(OCc3nnc4ccc(-c5ccccc5)nn34)ccnc2c1` .
inactive

Please let me know the test result on file for `Cc1c(NC(=O)OC[C@@H]2COCCN2)cn2ncnc(Nc3ccc4c(cnn4Cc4cccc(F)c4)c3)c12` .
inactive

Please let me know the test result on file for `COc1cccc(-c2ccc(NC(=O)C3=C(C(=O)O)CCC3)c(F)c2)c1` .
inactive

Please let me know the test result on file for `C=CC(=O)Nc1cc2c(Nc3ccc(F)c(Cl)c3)ncnc2cc1OCCCN1CCOCC1` .
inactive

Please let me know the test result on file for `COC(=O)Nc1nc2ccc(C(=O)c3ccc(F)cc3)cc2[nH]1` .
inactive

Please let me know the test result on file for `CCN(CC)CCCCNc1ncc2cc(-c3cc(OC)cc(OC)c3)c(NC(=O)NC(C)(C)C)nc2n1` .
active

---

# method: qHTS of pediatric cancer cell lines to identify multiple opportunities for drug repurposing: Primary screen for NB-EBc1 cells (AID 1347095)
# assay setup: NB-EBc1 neuroblastoma viability, CellTiter-Glo luminescence, 48 h; series mostly up to 46 µM
Inconclusive results are not listed. The source made the active and inactive calls. The call rests on the fitted dose curve; in most records, active means well fitted cell-killing curve with a large enough effect; inconclusive means small, poorly fitted or top-dose-only effect; inactive means no such curve, though single readings can be large or run the other way.
Lab note: assign the record to one of active, inactive

Example cases with answers are listed next.
Please let me know the test result on file for `O=C(CCCCCCNC(=O)c1cnc(N(c2ccccc2)c2ccccc2)nc1)NO` .
active

Please let me know the test result on file for `Nc1nc(-c2nn(Cc3ccccc3F)c3ncccc23)nc(N)c1N1CCOCC1` .
inactive

Please let me know the test result on file for C=C1C(=CC=C2CCCC3(C)[C@@H]([C@H](C)C=CC=CC(O)(CC)CC)CC[C@@H]23)C[C@@H](O)C[C@@H]1O (some centres not stated) .
active

Please let me know the test result on file for `COCCn1c2c([n+](Cc3cnccn3)c1C)C(=O)c1ccccc1C2=O` .
active

Next up:
Please let me know the test result on file for `CC1=C(CO)C(=O)O[C@@H]([C@@H](C)[C@H]2CC[C@H]3[C@@H]4C[C@H]5O[C@]56[C@@H](O)C=CC(=O)[C@]6(C)[C@@H]4CC[C@]23C)C1` .
active
